Known # >5K of a selection of compounds
- Tested on: ~100 representative kinases
- Test Name: DSF 100 kinase selectivity screen
- Assay type: binding
- Test Settings: number of proteins of the DSF panel with dTm >5K
Recorded Endpoint: # >5K

> print(dat)
                               smiles.entry                 study.system  recorded.endpoint  readout.value
1  O=C(Nc1ccc(Cl)cc1)C1(C(=O)Nc2cccc(-c3c[nH]c4ncnc(N5CCOCC5)c34)c2)CC1  ~100 representative kinases              # >5K             37
2  O=C(Nc1ccc(F)cc1)C1(C(=O)Nc2cccc(-c3c[nH]c4ncnc(N5CCOCC5)c34)c2)CC1  ~100 representative kinases              # >5K             28
3  Cc1ccc(-n2nc(C(C)(C)C)cc2NC(=O)Nc2cccc(-c3c[nH]c4ncnc(N5CCOCC5)c34)c2)cc1  ~100 representative kinases              # >5K             36
4  CC(C)(C)c1cc(NC(=O)Nc2cccc(-c3c[nH]c4ncnc(N5CCOCC5)c34)c2)n(-c2ccc3ncccc3c2)n1  ~100 representative kinases              # >5K             49
5  Cc1ccc(C(=O)Nc2ccc(CN3CCN(C)CC3)c(C(F)(F)F)c2)cc1C#Cc1c[nH]c2ncnc(N3CCOCC3)c12  ~100 representative kinases              # >5K             21
6  O=C(Nc1cccc(-c2c[nH]c3ncnc(N4CCOCC4)c23)c1)C1(C(=O)Nc2ccc(F)cc2F)CC1  ~100 representative kinases              # >5K             16
